# Tested on: ACHN
# Experiment Summary: NCI tumour cell line growth inhibition, 48 h
Active and inactive are the calls of the source. Rule as the data show it: active = GI50 up to about 1.1 µM and inactive = higher.
Readout Type: GI50

Lab note: measured GI50 of "CC(=O)Nc1ccc(C(=O)N2N=C(C)/C(=C/c3ccccc3O)C2=O)cc1" was > 100 µM (inactive)

Lab note: measured GI50 of "O=c1[nH]c(=O)n(C/C=C/CBr)nc1Br" was 13 µM (inactive)

Lab note: measured GI50 of "Cc1c2cc[n+](C)cc2c(C)c2c1[nH]c1ccc(Oc3ccccc3)cc12" was 2.48 µM (inactive)

Lab note: measured GI50 of "Nc1nnc(CCC(=O)Nc2cc(Cl)ccc2Cl)n1N" was > 100 µM (inactive)

Lab note: measured GI50 of "CCCCCCCCCCCOc1ccc(C(=O)C(=O)c2ccc(OCCCCCCCCCCC)c(OCCCCCCCCCCC)c2)cc1OCCCCCCCCCCC" was > 100 µM (inactive)

Lab note: measured GI50 of "O=c1c2ccccc2[nH]n1Cc1ccccc1" was > 100 µM (inactive)

Lab note: measured GI50 of COC1(C)/C=N/CC(C)(C)NC(=O)C(C)(OC)/C=N/CC(C)(C)NC1=O (stereo not given) was > 10 µM (inactive)

Lab note: measured GI50 of CC(=O)N1N=C(c2ccc3ccccc3c2O)CC1c1ccc(Cl)cc1Cl (stereo not given) was 29.6 µM (inactive)

Lab note: measured GI50 of CCC(O)C1Cc2c(C)cc3c(c2O1)C(=O)c1ccccc1C3=O (stereo not given) was 27.8 µM (inactive)

Lab note: measured GI50 of C=CC1CCC[N+]1(CC(=O)OCC)Cc1ccccc1 (stereo not given) was > 100 µM (inactive)

----------
# Test system: RPMI-8226
# Experiment Summary: NCI tumour cell line growth inhibition, 48 h
The source made the active and inactive calls. Cut-off read from the data, not from the text of the source: active = GI50 up to about 1.1 µM and inactive = higher.
# valid calls are active, inactive; nothing else

Challenge: Would you mind telling me which call this test gave CCOC(=O)c1ccc2nc3n(c2c1)C(c1c(F)cccc1F)SC3 (configuration not stated) ?
Response given: inactive

Challenge: Would you mind telling me which call this test gave COC(=O)C(=O)C(C(=O)C(=O)Nc1ccccc1C(N)=O)c1nc2ccc(C(=O)c3ccccc3)cc2nc1O (configuration not stated) ?
Response given: inactive

Challenge: Would you mind telling me which call this test gave "CC(=O)N(C(C)=O)n1nc2c(n1)C(=O)c1ccccc1C2=O" ?
Response given: inactive

Challenge: Would you mind telling me which call this test gave COc1cc(C2CC(C)(N3CCOCC3)Oc3cc4c(cc32)OCO4)cc(OC)c1OC (configuration not stated) ?
Response given: active

Challenge: Would you mind telling me which call this test gave CCC(C)C1NC(=O)C(NC(=O)C(CC(C)C)N(C)C(=O)[C@@H]2C=CCN2C(=O)[C@H](C)O)C(C)OC(=O)[C@H](Cc2ccc(OC)cc2)N(C)C(=O)[C@@H]2CCCN2C(=O)[C@H](CC(C)C)NC(=O)C(C)C(=O)[C@H](C(C)C)OC(=O)CC1O (some centres not stated) ?
Response given: active

Challenge: Would you mind telling me which call this test gave "NC(=S)N1N=C2c3ccccc3CC[C@H]2[C@@H]1c1cccs1" ?
Response given: inactive

Challenge: Would you mind telling me which call this test gave CC(=O)OCC1OC(OCCCOP(=S)(OCCC#N)OCC2OC(n3ccc(N)nc3=O)C(OC(=O)c3ccccc3)C2OC(=O)c2ccccc2)C(OC(C)=O)C(OC(C)=O)C1OC(C)=O (configuration not stated) ?
Response given: inactive

Challenge: Would you mind telling me which call this test gave "COC(=O)Cc1c([C@@H]2Nc3ccccc3[C@H]2CC(=O)OC)[nH]c2ccccc12" ?
Response given: inactive

Challenge: Would you mind telling me which call this test gave "CCN(CC)c1oc(N(CC)CC)c(C(=O)Nc2ccccn2)c(=O)c1C(C)=O" ?
Response given: inactive

Challenge: Would you mind telling me which call this test gave "O=C1C(c2ccc([N+](=O)[O-])cc2)=[N+]([O-])c2ccc([N+](=O)[O-])cc21" ?
Response given: inactive

Challenge: Would you mind telling me which call this test gave C=CC1CCC[N+]1(CC(=O)OCC)Cc1ccccc1 (configuration not stated) ?
Response given: inactive

Challenge: Would you mind telling me which call this test gave "NCCOc1ccccn1" ?
Response given: inactive

Challenge: Would you mind telling me which call this test gave "COc1cc(/C=C/c2ccc(O)c(OC)c2)cc(OC)c1" ?
Response given: inactive

Challenge: Would you mind telling me which call this test gave "CC(=O)/N=C1/N(/C=C2\C(=O)Oc3ccccc3C2=O)C(=O)/C(=C/c2ccc(NC(C)=O)cc2)N1C" ?
Response given: inactive

Challenge: Would you mind telling me which call this test gave "O=C1NC(=S)N(c2cccc3ccccc23)C(=O)/C1=C/c1c[nH]c2ccccc12" ?
Response given: inactive

Challenge: Would you mind telling me which call this test gave "Cc1cc(C)nc(NS(=O)(=O)c2ccc(Nc3nnc(/C=C/c4c(O)ccc5ccccc45)c(=O)n3N)cc2)n1" ?
Response given: inactive

Challenge: Would you mind telling me which call this test gave "Cc1cc2cc3c(Cl)c(CCCl)c(C)nc3cc2c(Cl)c1CCCl" ?
Response given: inactive

Challenge: Would you mind telling me which call this test gave Oc1ccc(Cl)cc1C1=NC(NCNC2=NC(c3ccccc3)CC(c3cc(Cl)ccc3O)=N2)=NC(c2ccccc2)C1 (configuration not stated) ?
Response given: inactive

Challenge: Would you mind telling me which call this test gave "CN(C)c1ccc(/C=C/C(=O)N[C@@H]2C(=O)N3[C@@H]2SC(C)(C)[C@@H]3C(=O)O)cc1" ?
Response given: inactive

Challenge: Would you mind telling me which call this test gave "CN(CCC(=O)O)S(=O)(=O)c1ccccc1" ?
Response given: inactive

Challenge: Would you mind telling me which call this test gave "CCCCCCCCCCCCCc1nnn[nH]1" ?
Response given: inactive

Challenge: Would you mind telling me which call this test gave "Cc1c2ccnc(C(=O)NCCN(C)C)c2cc2c3cc(O)ccc3n(C)c12" ?
Response given: active

----------
# Tested on: CCRF-CEM
# Experiment Summary: NCI tumour cell line growth inhibition, 48 h
Active and inactive are the calls of the source. No stated cut-off is given here; in the data, active = GI50 up to about 1.1 µM and inactive = higher.
# valid calls are yes for active, no for inactive; nothing else

Challenge: Would you mind telling me which call this test gave "NC(=O)NNCc1ccccc1" ?
Response given: no

Challenge: Would you mind telling me which call this test gave CCC(O)C1Cc2c(C)cc3c(c2O1)C(=O)c1ccccc1C3=O (stereo unspecified) ?
Response given: no

Challenge: Would you mind telling me which call this test gave "NC(=S)N/N=C\CC(O)(C(F)(F)F)C(F)(F)F" ?
Response given: no

Challenge: Would you mind telling me which call this test gave "Cc1ccccc1NC(=O)NC(Oc1ccccc1)(C(F)(F)F)C(F)(F)F" ?
Response given: no

Challenge: Would you mind telling me which call this test gave "Cc1c2ccnc(C(=O)NCCN(C)C)c2cc2c3cc(O)ccc3n(C)c12" ?
Response given: yes

Challenge: Would you mind telling me which call this test gave OC(c1ccc(C(F)(F)F)cc1)C(F)(F)c1nc2ccccc2o1 (stereo unspecified) ?
Response given: no

Challenge: Would you mind telling me which call this test gave "CCOC(=O)c1[nH]cc(C)c1-c1ccc2c(-c3ccccc3)nc3ccccc3n12" ?
Response given: no

Challenge: Would you mind telling me which call this test gave "CC(=O)Oc1ccc2c(=O)c(C(C)=O)coc2c1" ?
Response given: no

Challenge: Would you mind telling me which call this test gave "CN(CCC(=O)O)S(=O)(=O)c1ccccc1" ?
Response given: no

Challenge: Would you mind telling me which call this test gave "Clc1sc(Cl)c2c1[C@@H](Cl)C[C@@H]2Cl" ?
Response given: no

Challenge: Would you mind telling me which call this test gave COC(=O)c1ccccc1C1CN=NC12Cc1cc(C)c(C)cc1C2=O (stereo unspecified) ?
Response given: no

Challenge: Would you mind telling me which call this test gave "CCc1n[nH]c(=O)n1-n1c(C)ccc1C" ?
Response given: no

Challenge: Would you mind telling me which call this test gave CCCCCCOC(=O)C(N)Cc1ccc(OC)cc1 (stereo unspecified) ?
Response given: no

Challenge: Would you mind telling me which call this test gave "COc1cc2c(cc1OCc1ccccc1)NC(=S)[C@@H]1CCCN1C2=S" ?
Response given: no

Challenge: Would you mind telling me which call this test gave O=C(NC(CO)Cc1ccc(Oc2cc(CC(CO)NC(=O)OCc3ccccc3)ccc2OC(=O)OCc2ccccc2)cc1)OCc1ccccc1 (stereo unspecified) ?
Response given: no

Challenge: Would you mind telling me which call this test gave "CC(C)(C)C(=O)Nc1cccc(-c2ccc[nH]2)n1" ?
Response given: no

Challenge: Would you mind telling me which call this test gave COC1=C(C)C(=O)C2=C(C1=O)C1C3CC4=C(C(=O)C(OC)=C(C)C4=O)C(CNC(=O)C(C)=O)N3C(C#N)C(C2)N1C (stereo unspecified) ?
Response given: yes

Challenge: Would you mind telling me which call this test gave "CCCCN1CSC(=S)N(Cc2ccccc2)C1" ?
Response given: no

Challenge: Would you mind telling me which call this test gave Nc1ncc2c(n1)-c1ccccc1OC2N1CCCC1 (stereo unspecified) ?
Response given: no

Challenge: Would you mind telling me which call this test gave COc1ccc(C(C)NNC(=O)c2cc[n+]([BH2-]C#N)cc2)cc1OC (stereo unspecified) ?
Response given: no

Challenge: Would you mind telling me which call this test gave CC(C)(Br)C1(O)CCCN1C(=O)c1ccccc1 (stereo unspecified) ?
Response given: no

Challenge: Would you mind telling me which call this test gave COc1cc(C(Cc2ccccc2)NC(C)=O)oc(=O)c1 (stereo unspecified) ?
Response given: no

Challenge: Would you mind telling me which call this test gave NCC1(N2CCOCC2)C2CCCC21CO (stereo unspecified) ?
Response given: no

Challenge: Would you mind telling me which call this test gave "COc1ccccc1CCN1CCN(CCCc2ccccc2)CC1" ?
Response given: no

Challenge: Would you mind telling me which call this test gave "O=c1c2ccccc2[nH]n1Cc1ccccc1" ?
Response given: no

Challenge: Would you mind telling me which call this test gave "O=C(O)c1ccc(NNc2cc(=O)[nH]c(=O)[nH]2)cc1" ?
Response given: no
